tested-system: SIRT1 (Homo sapiens)
Sequence (Q96EB6 whole entry): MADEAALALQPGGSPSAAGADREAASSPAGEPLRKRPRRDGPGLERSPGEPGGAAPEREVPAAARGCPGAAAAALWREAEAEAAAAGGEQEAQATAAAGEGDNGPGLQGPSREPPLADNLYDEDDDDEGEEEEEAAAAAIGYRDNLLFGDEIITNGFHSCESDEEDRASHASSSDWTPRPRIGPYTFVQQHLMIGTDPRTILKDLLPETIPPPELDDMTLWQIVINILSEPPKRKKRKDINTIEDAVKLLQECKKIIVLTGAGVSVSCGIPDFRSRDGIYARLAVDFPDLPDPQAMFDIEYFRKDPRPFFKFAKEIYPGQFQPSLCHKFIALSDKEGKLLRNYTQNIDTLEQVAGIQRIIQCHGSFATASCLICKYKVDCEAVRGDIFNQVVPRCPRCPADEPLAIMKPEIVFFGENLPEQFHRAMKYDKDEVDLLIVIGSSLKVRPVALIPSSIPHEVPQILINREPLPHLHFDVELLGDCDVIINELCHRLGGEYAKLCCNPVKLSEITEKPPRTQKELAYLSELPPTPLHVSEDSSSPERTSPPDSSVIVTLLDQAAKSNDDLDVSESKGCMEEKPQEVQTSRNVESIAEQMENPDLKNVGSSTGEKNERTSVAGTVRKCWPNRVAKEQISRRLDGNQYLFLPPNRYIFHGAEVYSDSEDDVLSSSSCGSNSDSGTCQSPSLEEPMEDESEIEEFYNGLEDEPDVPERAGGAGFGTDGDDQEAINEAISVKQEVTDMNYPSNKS
assay-notes: Trp mass spectrometry assay of SIRT1 activity
Type: biochemical
experimental-context: Trp peptide substrate; percent maximum fold activation; read-out: Trp % Fold Act
measured-parameter: Emax

Supply recorded Emax for `O=C(Nc1ncccn1)c1cnn2ccc(-c3ccccc3OC(F)(F)F)nc12` here. ≥ 350%

Input `COc1cccc(NC(=O)c2cnn3ccc(-c4ccccc4OC(F)(F)F)nc23)n1` , output reported Emax. < 350%

Tell me Emax reported for `Cc1ccnc(C(=O)Nc2cnn3ccc(-c4ccccc4C(F)(F)F)nc23)c1` < 350%

Determine its reported Emax: `Cc1nc2ccc(-c3ccccc3OC(F)(F)F)nn2c1C(=O)Nc1ccncn1` ≥ 350%

Look up and state reported Emax for `Cc1nc(C(=O)Nc2cnc3cc(C)c(-c4ccccc4C(F)(F)F)nn23)c(C)s1` < 350%

Identify measured Emax corresponding to `O=C(Nc1ccccn1)c1cnn2ccc(-c3ccccc3OC(F)(F)F)nc12` < 350%

Output Emax of `Cc1cc(C)nc(NC(=O)c2cnc3ccc(N4CC[C@H](F)C4)nn23)c1` < 350%

Respond only with Emax recorded for `Cc1nn2ccc(-c3ccccc3C(F)(F)F)nc2c1C(=O)Nc1cccc(O)n1` < 350%

Identify Emax associated with the compound `COc1cccc(C(=O)Nc2c(C)nc3c(C)cc(-c4ccccc4C(F)(F)F)nn23)n1` < 350%

Give the reported value of Emax for this record: `O=C(Nc1ccncn1)c1cnn2ccc(-c3ccccc3OC(F)(F)F)nc12` < 350%

Return Emax for the following compound: `Cc1nc2ccc(-c3ccccc3C(F)(F)F)nn2c1C(=O)Nc1ccncn1` ≥ 350%

Indicate its recorded Emax; the compound in question is `Cc1cccc(NC(=O)c2c(C)nc3c(C)cc(-c4ccccc4OC(F)(F)F)nn23)n1` < 350%

For the compound `O=C(Nc1ccncc1F)c1cnn2ccc(-c3ccccc3C(F)(F)F)nc12` , give its measured Emax value. < 350%

Give Emax for the following compound: `Cc1nn2ccc(-c3ccccc3C(F)(F)F)nc2c1NC(=O)c1cnccn1` < 350%

Provide Emax value for the following compound: `Cc1cc2ncc(NC(=O)c3ccncn3)n2nc1-c1ccccc1C(F)(F)F` < 350%

Using the record for `Cc1nc(C(=O)Nc2cnn3ccc(-c4ccccc4C(F)(F)F)nc23)cs1` , state its measured Emax. < 350%

Please indicate Emax recorded for `Cc1cc(C)nc(NC(=O)c2cnc3ccc(-c4cccc(OC[C@H](O)CO)c4)nn23)c1` < 350%
